Reference for the values: patent US20200277373A1

The binders listed here are annotated with their pSyk FOB (30 nM Ab).
Biological target: T1, Human TREM2 protein, on cells (human, UniProt Q9NZC2 19-230)
T1 sequence: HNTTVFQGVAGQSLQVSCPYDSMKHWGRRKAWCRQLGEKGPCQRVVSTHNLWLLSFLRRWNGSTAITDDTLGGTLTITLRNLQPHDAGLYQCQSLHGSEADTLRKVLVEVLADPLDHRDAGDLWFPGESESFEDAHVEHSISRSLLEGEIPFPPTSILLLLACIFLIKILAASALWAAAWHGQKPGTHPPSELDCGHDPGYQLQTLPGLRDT
Experiment: cell-based or functional assay
Return type: number; implicit unit fold over background.

// known answers, use as guide
INSERT INTO assay_data (binder, unit_annotation, endpoint_value) VALUES
  ('24B4.A1 (antibody, V domains shown, Mouse hybridoma antibody, Ig2a, k; same entries as 26E2.A3; also called RS8.24B4.A1) VH: QVHLQQSGSELRSPGSSVKLSCKDFDSEVFPISYMSWIRQKPGHGFEWIGDILPSIGGRIYGVKFEDRATLDADTVSNTAYLELNSLTSEDSAIYYCARKDYGSLAYWGQGTLVTVSA VL: DVVMTQTPLSLPVSLGDQASISCRSSQSLVHINGNTYLQWFLQKPGQSPKLLIYKVSNRFSGVPDRFSGSGSGTAFTLKISRVEAEDLGVYFCSQSTHVPYTFGGGTKLEIK', 'fold over background', 17.3),
  ('3D3.A1 (antibody, V domains shown, Mouse hybridoma antibody, Ig2a, k; also called RS8.3D3.A1) VH: EVQLQQSGPELVKPGASVKISCKTSGYTLSEYTMHWVIQSHGKSLEWIGGVIPNSGGTSYNQKFRDKASLTVDKSSSTAYLELRSLTSEDSAVYYCARGDDSYRRGYALDYWGQGTSVTVSS VL: DIVMSQSPSSLAVSVGEKVTMSCKSSQSLLYSSNQKSYLAWYQQKPGQSPKLLIYWASTRESGVPDRFRGSGSGTDFTLTISSVKAEDLAVYYCQQYFSYPPTFGGGTKLEIK', 'fold over background', 10.3),
  ('26E2.A3 (antibody, V domains shown, Mouse hybridoma antibody, Ig2a, k; also called RS8.26E2.A3) VH: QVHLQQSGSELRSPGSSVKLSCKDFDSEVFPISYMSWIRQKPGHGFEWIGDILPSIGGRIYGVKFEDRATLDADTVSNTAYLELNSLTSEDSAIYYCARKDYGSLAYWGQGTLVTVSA VL: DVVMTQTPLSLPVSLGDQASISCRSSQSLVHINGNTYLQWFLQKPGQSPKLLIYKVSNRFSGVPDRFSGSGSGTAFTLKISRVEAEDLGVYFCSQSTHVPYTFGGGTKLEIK', 'fold over background', 4.67);

Now let's try a different one.
So what does the record say about pSyk FOB (30 nM Ab) for 40H3.A4 (antibody, V domains shown, Mouse hybridoma antibody, isotype N.D; also called RS8.40H3.A4) VH: EVQLQQSGAEVVKPGASVKLSCTASGFNIKDTYMHWVKQRPEQGLEWIGRIDPANGNTKYDPKFQGKATITADTSSNTAYLQLSSLTSEDTAVYYCATLFAYWGQGTLVTVSA VL: DIVMTQAAFSNPVTLGTSASISCRSSKSLLHSNGITYLYWYLQKPGQSPQLLIYQMSNLASGVPDRFSSSGSGIDFTLRINRVEAEDVGVYYCAQNLELPTFGSGTKLEIK ? 1.23
